Values compiled from patent US20230322735A1.

experiment.description: Metabolic stability in human liver microsomes (HLM)
setup.conditions: both, human, pooled human liver microsomes, pH 7.4
Where a name gives a salt, the structure may show the parent alone.
Would you mind telling me the reported half-life at 1 μM of each entry?

GET /value?item= c1ccc2c(CCN3CCC3)c[nH]c2c1 [Compound 1, fumarate] &field=half-life at 1 μM returns 1.86 h

Value of measured half-life at 1 μM for the entry Oc1cccc2[nH]cc(CCN3CCC3)c12 [Compound 2, 3-(2-(azetidin-1-yl)ethyl)-1H-indol-4-ol] : > 2.42 h

Form field half-life at 1 μM, entry COc1ccc2[nH]cc(CCN3CCC3)c2c1 [Compound 3, fumarate] : > 2.42 h

----------
experiment.description: Stability in mouse brain homogenate
setup.conditions: male, CD-1, mouse, mouse brain homogenate
Where a name gives a salt, the structure may show the parent alone.
I'd appreciate it if you could supply half-life at 1 μM values for the items below.

Oc1cccc2[nH]cc(CCN3CCC3)c12 has a reported half-life at 1 μM of > 4.82 h

Memo: COc1ccc2[nH]cc(CCN3CCC3)c2c1 [Compound 3, fumarate] , reported half-life at 1 μM: > 4.82 h

Sure, the documented half-life at 1 μM for c1ccc2c(CCN3CCC3)c[nH]c2c1 [Compound 1, fumarate] is > 4.82 h

----------
measurement.target: 5-HT2A receptor (Homo sapiens, UniProt P28223)
Construct: host or cells: HEK293
Sequence (P28223 whole entry): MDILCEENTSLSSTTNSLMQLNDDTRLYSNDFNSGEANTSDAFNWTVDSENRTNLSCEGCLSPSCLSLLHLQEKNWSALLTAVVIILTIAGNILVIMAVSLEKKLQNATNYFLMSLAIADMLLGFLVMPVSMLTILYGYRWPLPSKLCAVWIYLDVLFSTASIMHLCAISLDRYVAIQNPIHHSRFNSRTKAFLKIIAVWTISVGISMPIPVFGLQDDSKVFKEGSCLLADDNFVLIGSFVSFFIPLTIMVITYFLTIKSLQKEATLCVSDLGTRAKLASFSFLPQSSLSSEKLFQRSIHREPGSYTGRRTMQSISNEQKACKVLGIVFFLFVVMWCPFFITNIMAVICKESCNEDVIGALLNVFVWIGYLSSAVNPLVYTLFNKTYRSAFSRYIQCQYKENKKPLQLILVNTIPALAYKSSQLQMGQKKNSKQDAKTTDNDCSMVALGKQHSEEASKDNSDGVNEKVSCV
experiment.description: FLIPR Ca2+ flux agonist assay at 5-HT2A (HEK293)
Format: cell-based
outcome.measure: pEC50
Keep in mind that pEC50 stands for -log10 of concentration in molar terms.

Log: 5-HT2A receptor (Homo sapiens, UniProt P28223), compound CCN(C)CCc1c[nH]c2cccc(O)c12 [Compound 4-HO-MET, reference compound] , pEC50 = 7.82

Known value: 5-HT2A receptor (Homo sapiens, UniProt P28223) pEC50 of the compound CCN(C)CCc1c[nH]c2ccccc12 [MET, reference compound] equals 7.77

----------
Consider the following compounds; for each one, report its 5-HT1A % Act @ Max Dose.
measurement.target: 5-HT1A receptor (Homo sapiens, UniProt P08908)
Construct: host or cells: CHO cells
Sequence (P08908 1-422): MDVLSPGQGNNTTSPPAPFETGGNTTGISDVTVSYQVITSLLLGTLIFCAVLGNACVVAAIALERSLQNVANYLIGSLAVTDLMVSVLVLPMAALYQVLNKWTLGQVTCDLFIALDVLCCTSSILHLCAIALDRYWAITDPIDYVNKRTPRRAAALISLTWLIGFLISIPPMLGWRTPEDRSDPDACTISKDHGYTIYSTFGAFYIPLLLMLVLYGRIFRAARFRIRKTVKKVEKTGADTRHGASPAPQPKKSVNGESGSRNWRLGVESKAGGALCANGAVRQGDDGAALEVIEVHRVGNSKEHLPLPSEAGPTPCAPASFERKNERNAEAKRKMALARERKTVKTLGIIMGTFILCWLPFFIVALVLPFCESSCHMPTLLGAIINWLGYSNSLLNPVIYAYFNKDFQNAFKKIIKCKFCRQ
experiment.description: FLIPR Ca2+ flux agonist assay at 5-HT1A (CHO cells)
Assay type: cell-based
setup.conditions: Ca2+ flux, agonist mode, CHO cells
Where a name gives a salt, the structure may show the parent alone.
# value in %; strip the unit string

CN(C)CCc1c[nH]c2cccc(O)c12 [Psilocin, psilocin, reference compound] yielded 5-HT1A % Act @ Max Dose of 66.4

CCN(C)CCc1c[nH]c2ccccc12 [MET, reference compound] has a reported 5-HT1A % Act @ Max Dose of 73.6

get_value(item= c1ccc2c(CCN3CCC3)c[nH]c2c1 [Compound 1, fumarate] , readout=5-HT1A % Act @ Max Dose) returns 135

Memo: COc1ccc2[nH]cc(CCN(C)C)c2c1 [Compound 5-MeO-DMT, reference compound] , reported 5-HT1A % Act @ Max Dose: 100

Lab book: 5-HT1A % Act @ Max Dose of CCN(C)CCc1c[nH]c2cccc(O)c12 [Compound 4-HO-MET, reference compound] noted as 73.0

Consider CN(C)CCc1c[nH]c2ccccc12 [DMT, N,N-dimethyltryptamine, reference compound] . Its measured 5-HT1A % Act @ Max Dose is 68.1

Consider COc1ccc2[nH]cc(CCN3CCC3)c2c1 [Compound 3, fumarate] . Its measured 5-HT1A % Act @ Max Dose is 112

5-HT1A % Act @ Max Dose reading for Oc1cccc2[nH]cc(CCN3CCC3)c12 : 102
